test system: KM20L2 colon; assay: NCI tumour cell line growth inhibition, 48 h
Measured property: TGI

[[record]]
compound = "O=C(NC1CCCCC1)NC12CC3CC(CC(F)(C3)C1)C2"
measured_value = "> 100 µM"

[[record]]
compound = "NCCCNCc1c2ccccc2c(CNCCCN)c2ccccc12"
measured_value = "53.4 µM"

[[record]]
compound = "CSc1ccc(Cc2cc(C(C)(C)C)cc(C(C)(C)C)c2O)cc1"
measured_value = "28.2 µM"

[[record]]
compound = "C/C=C(\\C)C(=O)OC1C2C(C)=CC(=O)C(O)C2(C)C2C3(O)OCC24C1OC(=O)C(OC(C)=O)C4C(C)C3O (configuration not stated)"
measured_value = "0.795 µM"

[[record]]
compound = "C/C(=N\\N)C(CN1CCOCC1)C(c1ccccc1)c1c(O)c2ccccc2oc1=O (configuration not stated)"
measured_value = "> 100 µM"

[[record]]
compound = "O=C(N/C(=C\\c1cccc([N+](=O)[O-])c1)c1nc2c3c(ccc2[nH]1)C(=O)c1ccccc1C3=O)c1ccccc1"
measured_value = "> 100 µM"

[[record]]
compound = "COc1ccc2c(c1)c1ccc3c(c1n2C)C(=O)C=CC3=O"
measured_value = "> 57.3 µM"

[[record]]
compound = "CN1C(c2ccccc2)CC(=NO)CC1c1ccccc1 (configuration not stated)"
measured_value = "> 100 µM"

[[record]]
compound = "CC(=O)N(N=O)c1ccc(N(N=O)C(C)=O)cc1"
measured_value = "> 100 µM"

[[record]]
compound = "CSc1nc2c(nc(N)n2C2OC(CO)C(O)C(O)C2O)c(=O)[nH]1 (configuration not stated)"
measured_value = "> 100 µM"

[[record]]
compound = "NC1=C(O)/C(=N/NS(=O)(=O)c2ccccc2)C(c2ccc3c(c2)OCO3)O1 (configuration not stated)"
measured_value = "> 100 µM"

[[record]]
compound = "Cc1ccc([N+](=O)[O-])cc1NC(=O)C(=O)Cc1nc2ccc(C(=O)c3ccccc3)cc2[nH]c1=O"
measured_value = "> 100 µM"

[[record]]
compound = "OCC1CC2C=CCC(C2)C1 (configuration not stated)"
measured_value = "> 100 µM"

[[record]]
compound = "O=C([O-])c1ccccc1Nc1ccccc1C(=O)[O-].[OH3+].[Zn+2]"
measured_value = "> 100 µM"

[[record]]
compound = "Oc1ccc(O)c(-n2cccn2)c1"
measured_value = "> 100 µM"

[[record]]
compound = "Clc1ccc(-c2nnc(-c3nn(-c4ccccc4)c4nc5ccccc5nc34)o2)cc1"
measured_value = "> 100 µM"

[[record]]
compound = "COC(=O)C(/C(=N/N)C(=O)Nc1cc(Cl)ccc1Cl)c1nc2ccc([N+](=O)[O-])cc2[nH]c1=O (configuration not stated)"
measured_value = "> 100 µM"

